Target: UniProt:P49430
Sequence (P49430 whole entry): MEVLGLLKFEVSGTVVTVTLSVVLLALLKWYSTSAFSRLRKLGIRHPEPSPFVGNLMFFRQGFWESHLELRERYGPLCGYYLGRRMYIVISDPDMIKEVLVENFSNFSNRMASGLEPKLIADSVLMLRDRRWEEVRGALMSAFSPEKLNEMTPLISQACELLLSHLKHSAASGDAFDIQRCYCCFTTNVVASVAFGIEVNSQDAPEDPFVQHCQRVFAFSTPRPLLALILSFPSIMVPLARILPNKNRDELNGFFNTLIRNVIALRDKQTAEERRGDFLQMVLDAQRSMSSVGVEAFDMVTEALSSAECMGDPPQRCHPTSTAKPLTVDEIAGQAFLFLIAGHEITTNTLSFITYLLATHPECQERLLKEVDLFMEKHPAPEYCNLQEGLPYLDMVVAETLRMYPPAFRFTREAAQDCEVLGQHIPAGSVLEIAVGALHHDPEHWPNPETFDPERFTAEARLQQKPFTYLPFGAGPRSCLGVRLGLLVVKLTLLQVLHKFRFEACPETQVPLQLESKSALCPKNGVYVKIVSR
Assay: Tested in vitro against TXA2 synthetase inhibitory activity in rat platelet
Consider the following compounds; for each one, report its IC50.
Record the result as a number with its unit.

Dear reader, for each entry below, please note its IC50.
1. Cn1nc(-c2cncs2)c2ccccc2c1=O
2. CCn1nc(-c2cccnc2)c2ccccc2c1=O

Reply:
1. 300 nM
2. 1300 nM

Source: ChEMBL document CHEMBL1126557
